System: UO-31 renal
TEST DETAILS: NCI tumour cell line growth inhibition, 48 h; in the data active = GI50 below about 0.43 µM; inactive = the rest
Use one of these outcomes when replying: y = active, n = inactive

Some solved entries appear below for comparison.
COC(=O)c1ccc2c(c1)n(Cc1ccc3ccccc3c1)c[n+]2Cc1ccc2ccccc2c1 | n
COc1cccc(NCc2nnc(Nc3ccc(Cl)cc3)c3ccccc23)c1 | n
NC(N)=NC(N)=Nc1cc2ccccc2c2ccccc12 | n
Cc1cc(C2CCCCC2)n(O)c(=O)c1 | n
COc1cc2c3c(n(CCCCl)c(=O)c2cc1OC)-c1ccccc1C3=O | n

## Input I would be grateful if you could indicate the recorded call for O=C(CCCSc1nc(-c2ccc(Cl)cc2)cc(-c2ccc(Cl)cc2)n1)NO .
## Output y

## Input I would be grateful if you could indicate the recorded call for CCCNC(=S)N/N=C(\C)c1ccccn1 .
## Output y

## Input I would be grateful if you could indicate the recorded call for CC(C)(C)OC(=O)N(CCCN(CCn1c2c(c3ccccc3c1=O)C(=O)c1ccccc1-2)C(=O)OC(C)(C)C)CCn1c2c(c3ccccc3c1=O)C(=O)c1ccccc1-2 .
## Output n

## Input I would be grateful if you could indicate the recorded call for CCOC(=O)c1c(C)n(Cc2ccc(OC)cc2)c2c1cc(O)c1[nH]c3c(c12)CCCC3 .
## Output n

## Input I would be grateful if you could indicate the recorded call for CN1C(NC(=O)c2ccc(Cl)nc2)=NS(=O)(=O)c2cc(Cl)ccc21 .
## Output n

----------
I'd be grateful if you could share measured TGI for these entries.
System: IGROV1 ovarian
TEST DETAILS: NCI tumour cell line growth inhibition, 48 h

Below: 4 compounds and their reported TGI.
CSc1ccc(C2C(Cl)C(=O)N2NC(=O)c2c(Cl)c(Cl)c(Cl)c(Cl)c2-c2nc3ccccc3[nH]2)cc1 (stereo not given) | 2.14 µM
O=P(c1ccccc1)(c1ccccc1)C(NCc1ccccc1)c1ccc(F)cc1 (stereo not given) | 33.4 µM
CCc1nc2ccccc2c(=O)n1/N=C(\N=Nc1ccc(Cl)cc1)c1ccccc1Cl | > 100 µM
NC(N)=NC(N)=Nc1cc2ccccc2c2ccccc12 | 19.1 µM

Here is another compound to look at.
Entry CC(C)NC(=O)OCc1c(COC(=O)NC(C)C)c(-c2ccc[n+](COC(=O)CC(C)(C)C)c2)n2c1CCC2 : TGI on IGROV1 ovarian = > 100 µM

----------
Test system: EKVX NSCLC
TEST DETAILS: NCI tumour cell line growth inhibition, 48 h
I'd be grateful if you could share measured TGI for these entries.

Go through the list and state TGI for each entry.
1. CC[C@@H]1/C=C/C=C/C[C@H](C)[C@@H](O)[C@](C)(O)C(=O)[C@H](C)[C@@H](O)[C@H](C)C(=O)[C@H](C)[C@@H](O)[C@H](C)/C=C/C(=O)O[C@H]2[C@@H](C)[C@@H](CC1)O[C@]1(O[C@H](CC(C)O)[C@H](C)CC1=O)[C@@H]2C (stereo partly drawn)
2. CC(C)(C)OC(=O)N(CCCN(CCn1c2c(c3ccccc3c1=O)C(=O)c1ccccc1-2)C(=O)OC(C)(C)C)CCn1c2c(c3ccccc3c1=O)C(=O)c1ccccc1-2
3. CC(C(=O)O)c1cnn(-c2ccccc2)c1-n1cccc1 (stereo not drawn)

## Output
5.9 µM
> 50 µM
> 100 µM

----------
Tested on: U251 CNS
TEST DETAILS: NCI tumour cell line growth inhibition, 48 h; in the data active = GI50 below about 0.43 µM; inactive = the rest
Use one of these outcomes when replying: yes (1) (active), no (0) (inactive)

COc1ccc2cc(C(=O)/C=C/c3cccc(OC)c3OC)ccc2c1 | no (0)
COc1cc2c(/C=C3/C(=O)Nc4cccc(Cl)c43)c(Cl)n(Cc3ccccc3)c2cc1C | no (0)
NC(N)=NC(N)=Nc1cc2ccccc2c2ccccc12 | no (0)
COc1ccc(C(=O)/C=C/c2cccnc2Nc2cc(OC)c(OC)c(OC)c2)cc1 | no (0)

## Input I would be grateful if you could indicate the recorded call for COC(=O)[C@]12CCC(C)(C)C[C@H]1C1=CC[C@@H]3[C@@]4(C)C/C(=C/c5cccnc5)C(=O)C(C)(C)[C@@H]4CC[C@@]3(C)[C@]1(C)CC2 .
## Output no (0)

## Input I would be grateful if you could indicate the recorded call for COc1cc(Cn2c(-c3ccccc3)cc3c2-c2oncc2CC3)cc(OC)c1OC .
## Output no (0)

## Input I would be grateful if you could indicate the recorded call for Nc1nccc(-c2c(-c3ccc(F)cc3)ncn2CCCN2CCOCC2)n1 .
## Output no (0)

## Input I would be grateful if you could indicate the recorded call for O=C(C[C@@H](C(=O)NCc1cccc(C(F)(F)F)c1)N1C(=O)[C@@H](N2C(=O)OC[C@@H]2c2ccccc2)[C@H]1/C=C/c1ccccc1)NC1CCN(Cc2ccccc2)CC1 .
## Output no (0)

## Input I would be grateful if you could indicate the recorded call for CCCCCCCCCCC(O)C1CCC(C2CCC(C(O)CCCCC(O)CCCCCC(O)CC3=CC(C)OC3=O)O2)O1 (stereo unspecified) .
## Output no (0)

----------
System: 786-0 renal
TEST DETAILS: NCI tumour cell line growth inhibition, 48 h; in the data active = GI50 below about 0.43 µM; inactive = the rest
Use one of these outcomes when replying: active, inactive

Some solved entries appear below for comparison.
COc1ccc(-c2nc(-c3nc4ccc(C)cc4[nH]3)c3ccccn23)cc1 | inactive
COc1cc2c3c(n(CCCBr)c(=O)c2cc1OC)-c1ccc(NC(C)=O)cc1C3=O | inactive
Cn1cc(-c2csc(-c3cccc(F)c3)n2)c2cccnc21 | inactive
CN1C(NC(=O)c2ccc(Cl)nc2)=NS(=O)(=O)c2cc(Cl)ccc21 | inactive
NCCCCn1c2c(c3ccccc3c1=O)C(=O)c1ccccc1-2 | active

## Input I would be grateful if you could indicate the recorded call for CCCNC(=S)N/N=C(\C)c1ccccn1 .
## Output inactive

## Input I would be grateful if you could indicate the recorded call for C[C@]12CC[C@@H]3c4ccc(Oc5nc(N6CC6)nc(N6CC6)n5)cc4CC[C@H]3[C@@H]1CCC2=O .
## Output inactive

## Input I would be grateful if you could indicate the recorded call for COc1ccc(-n2cc(-c3cc(OC)c(OC)c(OC)c3)[nH]c2=S)cc1OC .
## Output inactive

## Input I would be grateful if you could indicate the recorded call for COc1cc(-c2c(C#N)c(N)n3c(nc4ccccc43)c2C#N)cc(Br)c1OC .
## Output inactive

## Input I would be grateful if you could indicate the recorded call for C[C@]12CC[C@@H]3c4ccc(O)cc4C[C@@H](CCCCCCCCCS(=O)CCCC(F)(F)C(F)(F)F)[C@H]3[C@@H]1CC[C@@H]2O (some centres undefined) .
## Output inactive

## Input I would be grateful if you could indicate the recorded call for COc1ccc(/C(=N/Nc2ccc([N+](=O)[O-])cc2)Sc2cc(Cl)c(C)cc2S(N)(=O)=O)cc1 .
## Output inactive

## Input I would be grateful if you could indicate the recorded call for NC(N)=NC(N)=Nc1cc2ccccc2c2ccccc12 .
## Output inactive

## Input I would be grateful if you could indicate the recorded call for Cc1cc(C2CCCCC2)n(O)c(=O)c1 .
## Output inactive

## Input I would be grateful if you could indicate the recorded call for O=C(C[C@@H](C(=O)NCc1cccc(C(F)(F)F)c1)N1C(=O)[C@@H](N2C(=O)OC[C@@H]2c2ccccc2)[C@H]1/C=C/c1ccccc1)NC1CCN(Cc2ccccc2)CC1 .
## Output inactive

## Input I would be grateful if you could indicate the recorded call for Nc1nccc(-c2c(-c3ccc(F)cc3)ncn2CCCN2CCOCC2)n1 .
## Output inactive

----------
I'd be grateful if you could share measured TGI for these entries.
Tested on: BT-549 breast
TEST DETAILS: NCI tumour cell line growth inhibition, 48 h
Answers are plain numbers, in µM.

Below: 9 compounds and their reported TGI.
COc1cc([C@@H]2c3cc4c(cc3C(O[C@@H]3O[C@@H]5CO[C@@H](c6cccs6)OC5[C@H](O)[C@H]3O)C3COC(=O)[C@@H]32)OCO4)cc(OC)c1O (some centres undefined) | 1.31
Cc1cc(C)cc(Nc2nnc3n2S(=O)(=O)c2cc(C#N)c(Cl)cc2S3)c1 | 5.98
Cc1[nH]c(N=Nc2ccccc2)nc1N=Nc1ccccc1 | 8.11
Cn1cc(C2=C(c3cn(C)c4c(N)cccc34)C(=O)NC2=O)c2ccccc21 | 6.66
COc1cc(C2c3cc4c(cc3[C@H](OCCN(C)C)[C@@H]3COC(=O)C23)OCO4)cc(OC)c1O (some centres undefined) | 2.32
O=C1C(Br)=CC2(C=C1Br)CCN=c1c(O)c3c(c(O)c12)=NC=N3 | 33.3
C/C(=N\NC(=S)N1CC2CCC(CC2)C1)c1ccncn1 | 3.54
CC[C@H](C)[C@H](NC(=O)[C@H]1CCCCN1C)C(=O)N(C)[C@H](CCc1nc(C(=O)N[C@@H](Cc2ccccc2)C[C@H](C)C(=O)OC)cs1)C(C)C | 2.48
COc1cc2c3c(n(CCCBr)c(=O)c2cc1OC)-c1ccc(NC(C)=O)cc1C3=O | 34.7

Here is another compound to look at.
Short answer for Cc1cccc2c(N)c3cccc(C(=O)NCCCNCCN)c3nc12 : TGI was 28

Provenance of the data: PubChem BioAssay (NCI)
